Source of measurements: patent US20100248978A1

- Experimental System: T1, recombinant, His-tagged HPPD (p-hydroxyphenylpyruvate dioxygenase) (Arabidopsis thaliana, UniProt P93836)
- T1 construct: His-tag
- T1 sequence (P93836 whole entry): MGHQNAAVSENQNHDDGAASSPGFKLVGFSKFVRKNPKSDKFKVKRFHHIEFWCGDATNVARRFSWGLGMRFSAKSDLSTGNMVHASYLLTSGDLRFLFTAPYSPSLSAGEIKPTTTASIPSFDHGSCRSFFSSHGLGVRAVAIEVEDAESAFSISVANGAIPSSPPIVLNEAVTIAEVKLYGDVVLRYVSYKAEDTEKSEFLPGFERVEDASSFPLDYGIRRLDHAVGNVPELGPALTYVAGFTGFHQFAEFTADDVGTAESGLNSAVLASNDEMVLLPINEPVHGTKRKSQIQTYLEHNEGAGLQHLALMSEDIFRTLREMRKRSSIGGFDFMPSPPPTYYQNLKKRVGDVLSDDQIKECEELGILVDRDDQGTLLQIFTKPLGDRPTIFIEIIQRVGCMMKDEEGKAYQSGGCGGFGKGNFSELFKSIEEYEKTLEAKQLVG
- Procedure Text: nitrocellulose filter retention assay, binding of radioactively labelled RNA to recombinant HPPD
- Details: monoclonal aptamer, recombinant HPPD at various concentrations; read-out: dissociation constant
Measured Attribute: Kd (nM)
Enter your answer as a number in nM; do not include the unit.

Below, each entry is followed by its recorded Kd result.
Molecule	Reading Unit	Kd
S116C-C18 (nucleic acid, chemistry not given here) DNA: GGGAGAGGAGGGAGAUAGAUAUCAAUAUCGCCACGUUACGAGUACCAAGCUUUAUUUCCGCAGCCCGAUAGAGUUUGUCCUCACGGUGGAUGG	nM	832
S116D-C8: monoclonal RNA aptamer, specific ligand to HPPD from competitive SELEX S116D, SEQ. ID. No. 5 (nucleic acid, RNA, backbone not given here) GGGAGAGGAGGGAGAUAGAUAUCAAUAAAGUCGGUGACACCACGCAUCCAAAUACCGGUACGCGGAACUAAUAGUUUGUCCUCACGGUGGAUGG	nM	120

Request: Please give the measured Kd for this molecule: S115A-C1: monoclonal RNA aptamer binding HPPD from classical SELEX run S115A, SEQ. ID. No. 2 (nucleic acid, listed as RNA, chemistry not given here) GGGAGAGGAGGGAGAUAGAUAUCAACAAUGACUAGCCGUGUAAGUGGUCUCGUACAUCCGAAAAAGACGACCCAGUUUGUCCUCACGGUGGAUGG
Response: 128

Request: Try the molecule S116B-C4: monoclonal RNA aptamer, specific ligand to HPPD from competitive SELEX S116B, SEQ. ID. No. 4 (nucleic acid, RNA, backbone not given here) GGGAGAGGAGGGAGAUAGAUAUCAAGUAACAAAUGAUACUUUCCAAGCAUAAUUCAUUCGCAGCCCGAAUUAAGUUUGUCCUCACGGUGGAUGG
Response: 740
